Target: hACC2 (Homo sapiens, UniProt O00763)
Construct: delete amino acids 1-148 and add Met-Gly in front of Lys149 in the final product; His tag (C)
Sequence (O00763 149-2458 limits assumed): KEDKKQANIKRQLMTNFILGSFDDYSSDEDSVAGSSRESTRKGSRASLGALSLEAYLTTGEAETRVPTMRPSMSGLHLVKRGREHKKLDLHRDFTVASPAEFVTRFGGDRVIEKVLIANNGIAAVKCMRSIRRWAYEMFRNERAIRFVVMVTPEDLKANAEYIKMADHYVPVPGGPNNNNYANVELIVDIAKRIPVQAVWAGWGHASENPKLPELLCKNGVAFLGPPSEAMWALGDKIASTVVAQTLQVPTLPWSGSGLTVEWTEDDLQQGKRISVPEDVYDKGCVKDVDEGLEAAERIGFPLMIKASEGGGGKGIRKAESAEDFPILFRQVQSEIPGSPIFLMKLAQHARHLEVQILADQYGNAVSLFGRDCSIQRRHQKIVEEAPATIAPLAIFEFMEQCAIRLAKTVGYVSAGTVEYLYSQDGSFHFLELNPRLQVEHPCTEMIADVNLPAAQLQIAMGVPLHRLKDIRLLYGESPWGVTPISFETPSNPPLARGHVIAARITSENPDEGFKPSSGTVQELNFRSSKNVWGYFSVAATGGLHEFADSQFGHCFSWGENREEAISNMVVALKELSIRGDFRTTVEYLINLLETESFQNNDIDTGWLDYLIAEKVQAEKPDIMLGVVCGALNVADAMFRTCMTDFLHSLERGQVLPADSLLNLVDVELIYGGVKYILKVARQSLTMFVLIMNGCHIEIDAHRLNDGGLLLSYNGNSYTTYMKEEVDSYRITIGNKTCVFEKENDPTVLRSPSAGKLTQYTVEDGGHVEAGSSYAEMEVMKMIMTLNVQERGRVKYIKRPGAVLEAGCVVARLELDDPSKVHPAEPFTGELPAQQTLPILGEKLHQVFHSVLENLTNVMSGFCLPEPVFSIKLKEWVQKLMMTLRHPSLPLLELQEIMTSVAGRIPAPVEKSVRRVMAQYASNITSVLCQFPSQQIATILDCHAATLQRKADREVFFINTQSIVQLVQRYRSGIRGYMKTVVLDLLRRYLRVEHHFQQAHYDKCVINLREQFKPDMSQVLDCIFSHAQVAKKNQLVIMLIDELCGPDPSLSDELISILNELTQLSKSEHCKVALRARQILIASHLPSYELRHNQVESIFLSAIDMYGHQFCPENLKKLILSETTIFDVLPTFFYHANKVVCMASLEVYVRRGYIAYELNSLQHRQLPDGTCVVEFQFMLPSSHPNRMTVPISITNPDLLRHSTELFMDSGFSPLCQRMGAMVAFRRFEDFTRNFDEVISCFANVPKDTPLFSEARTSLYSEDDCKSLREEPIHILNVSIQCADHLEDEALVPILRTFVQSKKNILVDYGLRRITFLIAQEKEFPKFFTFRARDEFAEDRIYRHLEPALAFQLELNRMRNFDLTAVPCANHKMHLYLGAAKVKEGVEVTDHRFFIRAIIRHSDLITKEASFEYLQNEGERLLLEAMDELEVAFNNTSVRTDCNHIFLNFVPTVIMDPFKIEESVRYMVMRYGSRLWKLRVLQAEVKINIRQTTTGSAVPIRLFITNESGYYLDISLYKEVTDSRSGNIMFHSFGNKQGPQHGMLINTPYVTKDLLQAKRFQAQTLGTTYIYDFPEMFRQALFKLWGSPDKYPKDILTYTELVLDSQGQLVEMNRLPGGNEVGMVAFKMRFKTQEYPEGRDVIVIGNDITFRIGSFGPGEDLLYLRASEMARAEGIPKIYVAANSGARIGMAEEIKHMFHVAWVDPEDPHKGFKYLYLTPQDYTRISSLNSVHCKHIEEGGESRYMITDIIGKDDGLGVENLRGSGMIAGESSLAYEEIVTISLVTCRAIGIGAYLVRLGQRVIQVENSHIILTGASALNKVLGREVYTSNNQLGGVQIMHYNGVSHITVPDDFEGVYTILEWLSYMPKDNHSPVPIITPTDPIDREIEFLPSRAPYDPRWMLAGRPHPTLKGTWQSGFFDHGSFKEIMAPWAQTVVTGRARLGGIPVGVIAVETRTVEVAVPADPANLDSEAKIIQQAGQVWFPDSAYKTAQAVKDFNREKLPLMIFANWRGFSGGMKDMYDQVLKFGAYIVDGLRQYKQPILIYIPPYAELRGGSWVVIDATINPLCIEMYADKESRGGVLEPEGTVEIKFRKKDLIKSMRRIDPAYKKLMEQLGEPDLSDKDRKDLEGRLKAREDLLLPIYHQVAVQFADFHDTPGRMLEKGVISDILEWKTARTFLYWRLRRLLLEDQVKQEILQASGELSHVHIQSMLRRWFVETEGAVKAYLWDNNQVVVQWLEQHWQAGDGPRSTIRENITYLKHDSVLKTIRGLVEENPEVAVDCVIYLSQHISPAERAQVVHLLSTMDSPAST
Assay: [14C]bicarbonate incorporation assay, overall ACC activity
Details: recombinant hACC2, overall ACC activity
Description: In vitro IC50 values of human ACC were determined using recombinant enzyme produced by standard procedures. For example, full-length cDNAs for both the human isoforms (hACC1 and hACC2) were each cloned and expressed as a recombinant protein using a baculovirus system. Double stranded cDNA from human fetal liver (Quick-Clone cDNA, cat. #7171-1) was purchased from BD/Clontech (Mt. View, Calif.). […]
measurement-name: pIC50
Lab note — pIC50 values are minus log10 of concentrations in M.

compound	measurement-name	numeric-result
COc1cc(C(=O)N2CCC3(CC2)NC(=O)c2cc(Cl)ccc2O3)cc2c(OC)cccc12 [Compound 171]	pIC50	7.85

Looking for the measured pIC50 of COc1cc(C(=O)N2CCC3(CC2)NC(=O)c2cc(C)ccc2O3)nc2c(SC)cccc12 [Compound 148] , can you help?
7.18

Entry COc1cc(C(=O)N2CCC3(CC2)NC(=O)c2cc(Br)ccc2N3)nc2c(SC)cccc12 [Compound 93] : reported pIC50 = ?
5.96

Reported pIC50, compound COc1ccc(OC)c2c1cc(C(=O)N1CCC3(CC1)NC(=O)c1cc(OC(C)C)ccc1O3)n2C [Compound 185] : ____
7.08

Dear colleague, I am looking for the recorded pIC50 of the following compound: O=C1NC2(CCN(C(=O)c3ccc4[nH]cnc4c3)CC2)Oc2ccc(Br)cc21 [Compound 109]
5.54

----------
# IC50 values compiled below
biological target: hACC2 (Homo sapiens, UniProt O00763); construct: delete amino acids 1-148 and add Met-Gly in front of Lys149 in the final product; His tag (C); assay: [14C]bicarbonate incorporation assay, overall ACC activity; details: recombinant hACC2, overall ACC activity
// return numeric value only (unit: nM, not printed)

Record excerpt, results attached:
smiles-str	IC50 / nM
COc1cc(C(=O)N2CCC3(CC2)NC(=O)c2cc(C(C)C)ccc2O3)cc2[nH]ncc12	33
COc1cccc2c(C)c(C(=O)N3CCC4(CC3)NC(=O)c3cc(C)ccc3O4)[nH]c12	190

# get_value(readout='IC50', item= COc1ccc(OC)c2[nH]c(C(=O)N3CCC4(CC3)NC(=O)c3ccccc3O4)cc12 )
850

----------
biological target: hACC1 (Homo sapiens); construct: PCR primers were designed for full-length hACC1 and hACC2 using GenBank submissions AY237919 and AJ575592, respectively; His tag (C); assay: [14C]bicarbonate incorporation assay, overall ACC activity; settings: recombinant hACC1, overall ACC activity
measurement-name: pIC50
Scale: pIC50 equals -log10([C]), with [C] in mol/L.

smiles-str	study-target	measurement-name	numeric-result
COc1cc(C(=O)N2CCC3(CC2)NC(=O)c2cc(OC(C)C)ccc2O3)nc2c(OC)cccc12	hACC1 (Homo sapiens)	pIC50	8.12
COc1cc(C(=O)N2CCC3(CC2)NC(=O)c2cc(C(C)C)ccc2O3)cc2c(OC)cccc12	hACC1 (Homo sapiens)	pIC50	7.85

Any idea what its pIC50 is? The compound is COc1cc(C(=O)N2CCC3(CC2)NC(=O)c2cc(OC(C)C)ccc2O3)cc2c(OC)cccc12
8.22

Please look up its pIC50: COc1cc(C(=O)N2CCC3(CC2)NC(=O)c2cc(OC(F)(F)F)ccc2O3)nc2c(OC)cccc12
8.15

What value of pIC50 has been reported for the following compound? COc1cc(C(=O)N2CCC3(CC2)NC(=O)c2cc(OC(F)(F)F)ccc2O3)cc2c(OC)cccc12
8.22

----------
The entries below are paired with their reported pIC50.
Molecular target: hACC1 (Homo sapiens, UniProt Q13085)
Construct: PCR primers were designed for full-length hACC1 and hACC2 using GenBank submissions AY237919 and AJ575592, respectively; His tag (C)
Assay: [14C]bicarbonate incorporation assay, overall ACC activity
Conditions: recombinant hACC1, overall ACC activity
Procedure: In vitro IC50 values of human ACC were determined using recombinant enzyme produced by standard procedures. For example, full-length cDNAs for both the human isoforms (hACC1 and hACC2) were each cloned and expressed as a recombinant protein using a baculovirus system. Double stranded cDNA from human fetal liver (Quick-Clone cDNA, cat. #7171-1) was purchased from BD/Clontech (Mt. View, Calif.). […]
Units for pIC50: none; it is -log10 of a concentration expressed in mol/L.

Give its pIC50 value. Item: COc1cc(C(=O)N2CCC3(CC2)NC(=O)c2cc(C)ccc2O3)nc2c(OC)cccc12
7.17

Look up pIC50: COc1ccc(OC)c2[nH]c(C(=O)N3CCC4(CC3)NC(=O)c3ccccc3O4)cc12
5.96

Query: pIC50; subject: COc1cccc2ccc(C(=O)N3CCC4(CC3)NC(=O)c3cc(Br)ccc3O4)nc12
6.13

Data provenance: patent US8110570B2
